TARGET_OR_TEST_SYSTEM: F508del-CFTR (Homo sapiens, UniProt P13569, DEL508-508)
Sequence (P13569 with tags, fused parts or gaps DEL508-508): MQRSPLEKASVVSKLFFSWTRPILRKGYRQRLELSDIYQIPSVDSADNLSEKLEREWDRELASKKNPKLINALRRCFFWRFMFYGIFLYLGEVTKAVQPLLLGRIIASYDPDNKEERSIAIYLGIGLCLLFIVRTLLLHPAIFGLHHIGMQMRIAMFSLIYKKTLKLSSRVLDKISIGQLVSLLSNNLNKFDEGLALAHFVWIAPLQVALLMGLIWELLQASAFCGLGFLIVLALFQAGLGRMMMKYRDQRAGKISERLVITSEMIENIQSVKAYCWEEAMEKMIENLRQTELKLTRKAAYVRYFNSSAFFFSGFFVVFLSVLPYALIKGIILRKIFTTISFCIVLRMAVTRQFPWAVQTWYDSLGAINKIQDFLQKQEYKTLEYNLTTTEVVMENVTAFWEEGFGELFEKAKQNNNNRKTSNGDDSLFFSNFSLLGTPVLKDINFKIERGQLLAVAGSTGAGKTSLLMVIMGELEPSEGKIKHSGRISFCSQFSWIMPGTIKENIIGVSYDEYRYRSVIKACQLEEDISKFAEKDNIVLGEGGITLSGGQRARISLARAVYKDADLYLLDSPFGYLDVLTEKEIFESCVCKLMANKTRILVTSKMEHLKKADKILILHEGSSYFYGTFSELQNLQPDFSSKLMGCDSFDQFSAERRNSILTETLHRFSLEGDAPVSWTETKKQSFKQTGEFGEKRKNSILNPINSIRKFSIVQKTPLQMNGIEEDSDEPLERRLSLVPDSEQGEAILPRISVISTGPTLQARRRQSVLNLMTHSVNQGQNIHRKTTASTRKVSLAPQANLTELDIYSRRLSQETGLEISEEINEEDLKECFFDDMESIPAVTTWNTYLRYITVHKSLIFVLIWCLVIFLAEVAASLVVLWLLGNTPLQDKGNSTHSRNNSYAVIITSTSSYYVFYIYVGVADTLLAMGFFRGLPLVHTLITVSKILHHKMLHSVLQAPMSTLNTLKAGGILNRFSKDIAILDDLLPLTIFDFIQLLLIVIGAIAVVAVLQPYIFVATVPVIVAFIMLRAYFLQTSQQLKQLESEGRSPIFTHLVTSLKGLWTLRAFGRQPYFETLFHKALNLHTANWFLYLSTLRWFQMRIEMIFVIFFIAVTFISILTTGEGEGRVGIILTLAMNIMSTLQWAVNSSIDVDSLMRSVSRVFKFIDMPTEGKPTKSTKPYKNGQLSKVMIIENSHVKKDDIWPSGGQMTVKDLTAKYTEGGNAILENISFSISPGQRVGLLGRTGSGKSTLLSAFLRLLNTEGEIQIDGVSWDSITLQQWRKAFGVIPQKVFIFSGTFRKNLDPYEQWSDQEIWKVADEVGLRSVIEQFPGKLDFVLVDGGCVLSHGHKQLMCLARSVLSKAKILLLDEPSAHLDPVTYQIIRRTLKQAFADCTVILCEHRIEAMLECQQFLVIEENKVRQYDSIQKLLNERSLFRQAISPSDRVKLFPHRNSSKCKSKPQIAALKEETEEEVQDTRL
ASSAY_COMMENT: Membrane potential optical (FLIPR) assay for F508del-CFTR modulators
Format: cell-based
Parameters: expressed in transfected cells
TEST_PARAMETERS: CFTR Activity, Table 120; read-out: CFTRdF508 EC50
From the text: The assay utilizes fluorescent voltage sensing dyes to measure changes in membrane potential using a fluorescent plate reader (e.g., FLIPR III, Molecular Devices, Inc.) as a readout for increase in functional F508del in NIH 3T3 cells. […] To identify modulators of F508del, a fluorescence based HTS assay format was developed. […]
MEASURED_ENDPOINT: EC50

Problem: Name the recorded EC50 of the item `C[C@@H]1CN(c2nc(-n3ccc(OCCC4(C(F)(F)F)CC4)n3)ccc2C(=O)NS(=O)(=O)c2ccccc2)C(C)(C)C1` in your answer.
Result: < 100 nM

----------
ASSAY_COMMENT: pKa determination
Format: physicochemical
MEASURED_ENDPOINT: pKa

Problem: Read off the recorded pKa for `C[C@@H]1CN(c2nc(-n3ccc(OCCC4(C(F)(F)F)CC4)n3)ccc2C(=O)NS(=O)(=O)c2ccccc2)C(C)(C)C1`
Result: 4.95
